target: NELF-A (6-188);NELF-C (183-590) (Homo sapiens;Homo sapiens, UniProt Q9H3P2;Q8IXH7 6-188;183-590, |); experiment: fluorescence anisotropy; NELF-AC: 30 mM NaCl, 3 mM MgCl2, 10 mM Na-HEPES pH 7.4, 2 mM DTT, 50 ug/ml BSA; other NELF complexes: same with 60 mM NaCl and 5 ug/ml yeast tRNA; 10 nM nucleic acid, incubated at RT, read at 30 C; settings: protein: recombinant;recombinant; tags: N-His6 removed by thrombin;none; copies: 1;1; label: 5'-FAM; single strand
Sequence (Q9H3P2 6-188, chain 1 of 2): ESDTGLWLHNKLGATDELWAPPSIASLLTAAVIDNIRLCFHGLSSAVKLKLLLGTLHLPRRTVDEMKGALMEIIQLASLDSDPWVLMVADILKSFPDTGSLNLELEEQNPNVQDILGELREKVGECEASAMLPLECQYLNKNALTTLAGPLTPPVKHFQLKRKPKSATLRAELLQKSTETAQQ
Sequence (Q8IXH7 183-590, chain 2 of 2): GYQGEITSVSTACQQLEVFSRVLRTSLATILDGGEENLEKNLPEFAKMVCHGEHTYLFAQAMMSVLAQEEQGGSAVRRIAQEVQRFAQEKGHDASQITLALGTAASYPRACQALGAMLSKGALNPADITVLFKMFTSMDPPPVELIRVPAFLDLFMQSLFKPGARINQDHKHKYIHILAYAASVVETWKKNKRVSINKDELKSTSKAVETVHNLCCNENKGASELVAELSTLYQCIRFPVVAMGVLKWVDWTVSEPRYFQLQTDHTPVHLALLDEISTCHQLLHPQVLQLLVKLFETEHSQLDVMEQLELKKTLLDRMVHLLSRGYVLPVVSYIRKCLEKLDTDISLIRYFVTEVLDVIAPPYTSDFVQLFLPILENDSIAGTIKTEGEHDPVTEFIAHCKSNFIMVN
measurementLabel: Kd (µM)

>>> print(df.to_string())
                                     binder  measurementlabel  observed
0  AAGGGGAGCGGGGGAGGAUAAUAGG (ssRNA) [60% GC ssRNA]                Kd      6.87
1  AAGGGGAGCGGGGGAGGATAATAGG (ssDNA) [60% GC ssDNA]                Kd      17.5
